QUANTITY KIND: melting point

Sample answers from the record:
Cc1cc2c(cc1F)c(C#N)c(-c1ccc(S(=O)(=O)N[C@@H](C)C(F)(F)F)cn1)n2-c1ccc(C#N)cn1 [compound 743] :: 276 to 277 °C
Cc1ccc2c(C#N)c(-c3ccc(S(=O)(=O)NC(CF)CF)cn3)n(-c3ccccn3)c2c1 [compound 248] :: 159 to 162 °C
Cc1ccc2c(c1)c(C#N)c(-c1ncc(S(=O)(=O)NC(CF)CF)cn1)n2C1CCCC1 [compound 160] :: 202 to 207 °C
CC(C)NS(=O)(=O)c1ccc(-c2c(C#N)c3cc(OC(F)(F)F)ccc3n2C2CCC2)nc1 [compound 23] :: 174 to 176 °C
C[C@H](NS(=O)(=O)c1ccc(-c2c(C#N)c3cc(CC(F)F)ccc3n2C2CCC2)nc1)C(F)(F)F [compound 702] :: 143 to 147 °C
C[C@H](NS(=O)(=O)c1ccc(-c2c(C#N)c3ccc(C#N)cc3n2CC2CC2)nc1)C(F)(F)F [compound 349] :: 187 to 188 °C
N#Cc1c(-c2ccc(S(=O)(=O)NC(CF)CF)cn2)n(C2CCC2)c2ccc(OC(F)F)cc12 [compound 32] :: 166 to 172 °C
CC(C)NS(=O)(=O)c1ccc(-c2c(C#N)c3cc(C4CC4)ccc3n2C2CCC2)nc1 [compound 8] :: 172 to 174 °C

Dear colleague, could you please provide melting point for the compounds listed below?
1. CC(C)NS(=O)(=O)c1cnc(-c2c(C#N)c3ccc(OC(F)F)cc3n2C2CCC2)nc1 [compound 127]
2. Cc1c(F)cc2c(C#N)c(-c3ccc(S(=O)(=O)N[C@H](C)C(F)(F)F)cn3)n(C3CCC3)c2c1F [compound 666]
3. CCc1cc2c(cc1F)c(C#N)c(-c1ccc(S(=O)(=O)N[C@@H](C)C(F)(F)F)cn1)n2-c1cccnn1 [compound 975]
4. C[C@H](NS(=O)(=O)c1cnc(-c2c(C#N)c3cc(F)ccc3n2C2CCC2)nc1)C1CC1 [compound 544]
5. Cc1ccc2c(C#N)c(-c3ccc(S(=O)(=O)NC4(C(F)(F)F)CC4)cn3)n(C3CCC3)c2c1 [compound 256]
6. CCCS(=O)(=O)Nc1ccc(-c2c(C#N)c3ccc(Oc4nccnc4C#N)cc3n2C2CCC2)nc1 [compound 273]

Resp:
1: 192 to 194 °C; 2: 185 to 190 °C; 3: 240 to 247 °C; 4: 178 to 181 °C; 5: 189 to 194 °C; 6: 252 to 254 °C

Look up melting point for the entries below, preserving their order.
1. CCOc1cc2c(cc1F)c(C#N)c(-c1ccc(S(=O)(=O)N[C@@H](C)C(F)(F)F)cn1)n2C1CCC1 [compound 726]
2. N#Cc1c(-c2ccc(S(=O)(=O)NC(CF)CF)cn2)n(CC2CC2)c2cc(OC(F)(F)F)ccc12 [compound 68]
3. Cc1ccc2c(c1)c(C#N)c(-c1ccc(S(=O)(=O)N[C@@H](C)C3CC3)cn1)n2CC1CC1 [compound 525]
4. Cc1ccc2c(c1)c(C#N)c(-c1ccc(S(=O)(=O)N[C@@H](C)C3CC3)cn1)n2C(C)C [compound 564]
5. CC(C)NS(=O)(=O)c1cnc(-c2c(C#N)c3cc(Cl)ccc3n2C2CCC2)nc1 [compound 114]

Resp:
193 to 196 °C
132 to 133 °C
181 to 185 °C
170 to 173 °C
> 198 °C (dec.)

Req: What value of measured melting point is listed for CC(C)NS(=O)(=O)c1ccc(-c2c(C#N)c3ccc(C4CCC4)cc3n2C2CCC2)nc1 [compound 266] ?
Resp: 178 to 180 °C

All values here come from patent US8735414B2.
